Each recorded value in this set is attributed to patent US8609836B2.

Biological target: CDK4/CyclinD1 (h) (Homo sapiens)
Sequence (P11802 whole entry): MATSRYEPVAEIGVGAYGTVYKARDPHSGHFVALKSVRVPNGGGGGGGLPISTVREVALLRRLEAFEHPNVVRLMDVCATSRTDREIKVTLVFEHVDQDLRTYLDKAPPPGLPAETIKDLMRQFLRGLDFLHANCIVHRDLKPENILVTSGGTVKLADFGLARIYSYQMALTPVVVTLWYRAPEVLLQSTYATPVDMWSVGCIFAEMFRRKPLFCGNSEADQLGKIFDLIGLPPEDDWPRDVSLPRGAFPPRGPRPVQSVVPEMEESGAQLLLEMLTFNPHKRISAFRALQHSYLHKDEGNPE
Sequence (P24385 whole entry partner): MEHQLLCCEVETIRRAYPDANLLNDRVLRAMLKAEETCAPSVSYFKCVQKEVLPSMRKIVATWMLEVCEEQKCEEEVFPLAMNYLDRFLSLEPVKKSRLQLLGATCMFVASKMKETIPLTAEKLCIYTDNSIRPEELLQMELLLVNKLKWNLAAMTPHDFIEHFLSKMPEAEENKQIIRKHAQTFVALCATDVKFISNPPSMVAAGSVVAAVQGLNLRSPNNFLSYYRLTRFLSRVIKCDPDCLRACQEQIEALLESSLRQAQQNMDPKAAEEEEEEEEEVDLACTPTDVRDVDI
Test: CDK4/CyclinD1 human kinase inhibition, SPA with GST-pRb substrate
Assay type: biochemical
Settings: read-out: CDK4 pIC50 (converted)
Protocol: The in vitro inhibition of a panel of kinases was assessed using either the scintillation proximity assay (SPA) as described by Cook, N. D. et al., Advances in Experimental Medicine and Biology (1991), 36; p. 525-528. In the SPA technology the activity of the kinase of interest is measured using an appropriate biotinylated substrate that is incubated with the aforementioned kinase protein in the presence of (^33P) radiolabeled ATP. […] The scintillation intensity is detected by imaging on Leadseeker. […]
The following compounds are shown together with reported IC50 values.

compound | IC50
CN1CCCNC(=O)[C@H](CO)NCc2cccc(c2)Nc2nccc(n2)-c2ccc(cc2)C1 [Compound 113] | > 10 µM
COc1ccc2cc1CN(C)CCCNC(=O)CN1CCN(CC1)Cc1cc(Br)cc(c1)Nc1nccc-2n1 [Compound 144] | > 10 µM
C[C@@H]1NCc2cccc(c2)-c2ccnc(n2)Nc2ccc(N3CCOCC3)c(c2)CNC1=O [Compound 101] | 2.57 µM
COc1cc2cc(c1)Nc1nccc(n1)-c1ccc(cc1)CN(C)CCNC(=O)[C@H](CO)NC2 [Compound 109] | > 10 µM
